- System: SF-268
- protocolDetails: NCI tumour cell line growth inhibition, 48 h
Active and inactive are the calls of the source. Rule as the data show it: active = GI50 up to about 1.1 µM and inactive = higher.
Provide the reported GI50 of each item.

So what's the measured GI50 for this one? CC(C)N(C(=O)C12C3C4C1C1C2C3C41I)C(C)C (stereo not given) > 100 µM (inactive)

Form field: reported GI50 of CCOP(=O)(CC1OC(CO)C(O)C1O)OCC (stereo not given) > 100 µM (inactive)

Name the recorded GI50 for `N/C(=N\c1c([N+](=O)[O-])cnc2ccccc12)N1CCOCC1` . > 100 µM (inactive)

What measured GI50 goes with `c1ccc(N/N=C2\NN=C(c3ccccc3)CS2)cc1` ? 5.18 µM (inactive)

// returns reported GI50 for input `CS(=O)(=O)N/N=C/CN1C(=O)c2ccccc2C1=O` > 100 µM (inactive)

Can you share its GI50? I mean this compound: C/C(=N/NC(=O)c1ccccc1S(N)(=O)=O)C(CN1CCCCC1)C(C1=C(O)C2C=CC=CC2OC1=O)c1ccccc1 (stereo not given) 58.5 µM (inactive)

If you can, please state the reported GI50 value of COc1c(O)c2c3c(c(C)cc(O)c3c1O)C(=O)C(O)(C(C)(C)C(C)=O)C2=O (stereo not given) . > 100 µM (inactive)

Param item = `CC1(C)CCC2=C(O1)/C(=N\Nc1ccccc1)c1ccccc1C2=O` ; retrieve measured GI50. 48.3 µM (inactive)

Which measured GI50 value corresponds to `C/C(=N\NC(=O)c1ccncc1)c1sc(-n2nc(-c3ccccc3)cc2-c2ccccc2)nc1C` ? > 100 µM (inactive)

Item under review: `Oc1ccc(-c2c3c(nc4c2CCc2ccc(Br)cc2-4)-c2cc(Br)ccc2CC3)cc1` . Reported GI50? 21.7 µM (inactive)

* * *

- Test system: CCRF-CEM
- protocolDetails: NCI tumour cell line growth inhibition, 48 h
The source made the active and inactive calls. Cut-off read from the data, not from the text of the source: active = GI50 up to about 1.1 µM and inactive = higher.
measuredEndpoint: GI50

Any idea what GI50 was measured for CC12CCC([C@H](C(O)C3CCCCC3)C1=O)C2(C)C (stereo partly specified) ? 31.6 µM (inactive)

Data request, read-out GI50, for `Cn1nc(-c2ccccc2)c(C(=O)/C=C/c2ccc(Cl)cc2)c(N2CCCCC2)c1=O` 2.18 µM (inactive)

// query GI50 value for entry `Cc1nc(OCc2ccccc2)c2ncn(CCO)c2n1` > 100 µM (inactive)

Using the record for COc1c2c(cc3c1C(O)N1CC[C@]34[C@H]3O[C@H]3[C@H](OC)C[C@@H]14)OCO2 (stereo partly specified) , report its GI50. 2.38 µM (inactive)

Any idea what its GI50 is? The compound is O=C1NC2CCCCCC2C12CCCCC2 (stereo unspecified) > 100 µM (inactive)

I'd like to know its GI50. The compound in question is `O=C(OCC(Cl)(Cl)Cl)O[C@@H]1CCCC1(c1ccccc1)c1ccccc1` > 100 µM (inactive)

What measured GI50 goes with `CCN(CC)CCNC(=O)c1cc2cc(NC(=O)c3cc4cc(NC(=O)c5cc6cc(N)ccc6[nH]5)ccc4[nH]3)ccc2[nH]1` ? > 100 µM (inactive)

Suppose we examine the compound `CCOC(=O)c1[nH]c2ccccc2c1C(=O)C[C@H](NC(=O)C(F)(F)F)C(=O)OC` ; what GI50 value has been reported? > 100 µM (inactive)

Reported GI50 for Cc1ncc2c(n1)CCC1=C2OS(=O)(=O)CC1N(C)C (stereo unspecified) : what is it? 80.5 µM (inactive)

For `O=[N+]([O-])c1ccc(-n2nnc(C3=NCCN3)c2-c2ccccc2)cc1` , what is its reported GI50? > 100 µM (inactive)

What GI50 value was documented for this compound, `COc1ccccc1C[C@@H]1OC2(C=CC(=O)C=C2)O[C@H]1Cc1ccccc1OC` ? 3.33 µM (inactive)
